# Tested on: ACHN renal
# PROTOCOL NOTES: NCI-60 one-dose screen, 48 h
# MEASUREMENT SETUP: 10 µM unless noted
This is part of a sample that, as a whole, favours compounds with a hit. Of some 83,000 tested, about 20% had one in any assay. Active and inactive are the calls of the source. The calls were made as follows: active = growth percent below 10; inactive = the rest.
Would you mind answering with one of these outcomes? True (active), False (inactive)

Field: example entries. Status: answers known.
1) O=C1/C(=C/c2ccc(OCc3ccccc3)cc2)Oc2cc(OCCN3CCCCC3)ccc21; False
2) Cc1cccc(/C=C2\N=C(c3ccccc3)N(c3ccc(S(N)(=O)=O)cc3)C2=O)c1; False
3) O=C(NCc1ccccc1)C(Cl)Cl; False

QUERY: # fetch the recorded call for `O=[N+]([O-])c1cc([N+](=O)[O-])c(NN=C(c2ccc(O)cc2)c2ccc(O)cc2)cc1Cl` here
RESULT: True

QUERY: Please do the same for `O=c1[nH]c2cc(Cl)c(Cl)cc2n2cc3ncccc3c12` as well.
RESULT: False

QUERY: Please do the same for `CCOC(=O)c1c[nH]c2cc(OCC3CC3)c(OCC3CC3)cc2c1=O` as well.
RESULT: False
